Measured KI (inactivation) accompanies every entry in the list below.
Target: TG2 (human tissue transglutaminase) (Homo sapiens, UniProt P21980)
Construct: gene TGM2; recombinant, expressed in and purified from E. coli as previously described; catalytic Cys277
Sequence (P21980 2-687): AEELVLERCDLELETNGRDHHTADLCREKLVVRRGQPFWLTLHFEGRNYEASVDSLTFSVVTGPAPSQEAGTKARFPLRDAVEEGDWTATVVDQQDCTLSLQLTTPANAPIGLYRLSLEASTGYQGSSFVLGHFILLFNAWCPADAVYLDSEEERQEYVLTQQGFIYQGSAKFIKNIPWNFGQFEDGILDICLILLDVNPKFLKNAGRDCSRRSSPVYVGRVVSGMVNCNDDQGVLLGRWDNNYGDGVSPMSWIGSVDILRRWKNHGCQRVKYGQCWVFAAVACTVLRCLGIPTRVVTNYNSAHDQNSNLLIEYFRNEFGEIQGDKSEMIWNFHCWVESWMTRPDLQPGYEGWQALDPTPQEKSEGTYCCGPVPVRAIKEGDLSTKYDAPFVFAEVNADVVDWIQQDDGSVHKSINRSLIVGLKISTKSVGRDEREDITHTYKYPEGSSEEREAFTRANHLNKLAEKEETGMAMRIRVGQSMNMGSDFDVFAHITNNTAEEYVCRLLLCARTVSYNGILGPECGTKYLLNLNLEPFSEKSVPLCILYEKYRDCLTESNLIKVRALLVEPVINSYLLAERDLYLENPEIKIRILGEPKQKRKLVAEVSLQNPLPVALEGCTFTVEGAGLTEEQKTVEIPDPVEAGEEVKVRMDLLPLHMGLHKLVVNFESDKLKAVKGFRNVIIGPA
Experiment: colorimetric AL5 hydrolysis at […] nm, Kitz and Wilson time-dependent inactivation, saturation fit
Format: biochemical
Conditions: covalent (Cys277), irreversible; 100 µM AL5, corrected for substrate competition; 50 mM MOPS pH 6.91, 15.5 mM CaCl2, 25 °C
Just the number in µM, nothing appended.

[
  {
    "molecule": "C=CC(N)=O [compound 8, acrylamide]",
    "valueUnit": "µM",
    "KI (inactivation)": 148
  }
]

What the record says about C=CC(=O)N1CCN(C(=O)C23CC4CC(CC(C4)C2)C3)CC1 : KI (inactivation) is 118

Record C=CC(=O)NCC(=O)N1CCN(C(=O)C23CC4CC(CC(C4)C2)C3)CC1 , field KI (inactivation): 3.2

Record C=CC(=O)NCC(N)=O , field KI (inactivation): 842

Record summary for C=CC(=O)NCC(=O)N1CCOCC1 : reported KI (inactivation) = 487

Looking up C=CC(=O)NCC(=O)N1CCN(C(C)=O)CC1 , I see its KI (inactivation) listed as 96

// field: KI (inactivation); key: C=CC(=O)NCC(=O)N1CCN(C(=O)OC(C)(C)C)CC1 ; value = 129

Origin of values: paper PMC11048362
